Recorded Kd by entry
Target: T1, his-tagged human TIGIT (Acro Biosystems #TIT-H52H3) (human, UniProt Q495A1 22-141)
T1 construct: Bought protein; also called His-tagged-TIGIT (human); not shown: his tag
T1 sequence (looked up): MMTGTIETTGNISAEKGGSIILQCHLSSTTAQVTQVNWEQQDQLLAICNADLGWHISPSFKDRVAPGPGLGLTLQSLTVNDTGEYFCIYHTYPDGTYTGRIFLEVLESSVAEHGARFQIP
Test: SPR (Carterra LSA), scFv-Fc captured, His-TIGIT analyte
Kindly provide the numeric value in nM only, without the unit symbol.

See these solved cases before continuing.
INSERT INTO measurements (binder, value_units, endpoint_result) VALUES
  ('43645p1.B8 (scFv, V domains shown) VH: EVQLLESGGGLVQPGGSLRLSCAASGFTFSDFWMSWVRQAPGKGLEWVSSIINIQTYDYATYYADSVKGRFTISRDNSKNTLYLQMNSLRAEDTAIYYCAKDVAPGLPGGMDVWGQGTTVTVSS VL: QSVLTQPPSASGTPGQRVTISCSGSNSNIRNNFVSWYQHLPGMAPKLLIYGNSQRPSGVPDRFSGSKSGTSASLAISGLQSEDEADYYCTSWDFSVNGWVFGGGTKLTVL', 'nM', 0.0906),
  ('43586p1.2.G10 (scFv, V domains shown) VH: EVQLLESGGGLVQPGGSLRLSCAASGFTFDDYVMSWVRQAPGKELEWVSLINWNGDKTCYADSVKGRFTISRDNSKNTLYLQMNSLRAEDTAIYYCAKHWIVFQYGMDVWGQGTTVTVSS VL: QSVLTQPPSASGTPGQRVTISCSGSISNIETKYVSWYQQLPGTAPKLLIYNSDQRPSGVPDRFSGSKSGTSASLAISGLQSEDEADYYCVSWDASLKSWVFGGGTKLTVL', 'nM', 0.941);

Let us examine a further case.
## Input Query: Kd; subject: 43586p1.2.G4 (scFv, V domains shown) VH: EVQLLESGGGLVQPGGSLRLSCAASGFTFDDYVMSWVRQAPGKGLEWVSLINWNGDKTYYADSVKGRFTISRDNSKNTLYLQMNSLRAEDTAVYYCARHWIVFQYGLDVWGQGTTVTVSS VL: QSVLTQPLSASGTPGQRVTISCSGVSSNIEIKYVSWYQQLPGTAPKLLIYNSHQRPSGVPDRFSGSKSGTSASLAISGLQSEDEADYYCTSWDDRLKSWVFGGGTKLTVL
## Output 0.394
